Listed next: entries and their corresponding pIC50.
experimental-target: UniProt:Q9GZV9
Sequence (Q9GZV9 whole entry): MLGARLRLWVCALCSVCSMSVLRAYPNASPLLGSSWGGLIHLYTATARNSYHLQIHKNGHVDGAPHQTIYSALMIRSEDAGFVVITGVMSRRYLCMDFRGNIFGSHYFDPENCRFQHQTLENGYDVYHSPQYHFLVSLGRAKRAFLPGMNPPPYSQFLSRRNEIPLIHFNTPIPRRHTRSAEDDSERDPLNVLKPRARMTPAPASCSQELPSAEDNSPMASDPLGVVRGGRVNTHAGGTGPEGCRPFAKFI
assay-name: Inhibition of FGF23 (unknown origin)-mediated activation of FGFR/alpha-Klotho transfected in HEK293T cells cotransfected with ERK luciferase reporter measured after 5 hrs by dual-luciferase reporter assay
Remember, pIC50 is on a log scale: it is -log10 of the molar concentration.

Field: example entries. Status: answers known.
compound-structure-string: Cc1ccc(/C=C/c2ncccc2/C=N/O)cc1
value-kind: pIC50
reported-value: 6.41
//
compound-structure-string: COc1ccc(C2=C(/C=N/O)CCC2)cc1
value-kind: pIC50
reported-value: 4.91
//
compound-structure-string: O/N=C/C1=C(/C=C/c2ccccc2)CCC1
value-kind: pIC50
reported-value: 5.30
//
compound-structure-string: O/N=C/C1=C(c2ccccc2)CCC1
value-kind: pIC50
reported-value: 5.00

input: Reported pIC50 for Cc1ccc(/C=C/C2=C(/C=N/O)CCCC2)cc1 : what is it?
output: 6.28

input: Repeat for the following compound: Cc1ccc(/C=C/C2=C(/C=N/O)CCC2)cc1
output: 6.70
